systemUnderTest: AgBzz1-D1
measurementDescription: SPOT peptide array binding signal intensity (averaged, normalized) (arbitrary units (background-subtracted, floor 0; scale differs between SH3 domains)); higher = stronger binding of the SH3 domain to the peptide
measuredAttribute: SPOT peptide array binding signal intensity

Study these solved cases before continuing.
[
  {
    "binder": "KNPRRQLQIPRQQPS",
    "measurement": 77
  },
  {
    "binder": "VAPPPLPNRQLPNLD",
    "measurement": 3
  },
  {
    "binder": "ISPPASPPPEFDFSK",
    "measurement": "≤ 0"
  }
]

The recorded SPOT peptide array binding signal intensity for entry "MFLISPPASPPPEFD" equals ≤ 0
